Values from the supplement of paper PMC10567573

B1: PTPN9 (parent)
chain: IDFLRVVRNQQSLAVSNMGARSKG

variants of: B1; assay: protein stability index of a GFP-peptide fusion (GPS, HEK-293T) (PSI 1-6); higher = more stable; settings: c terminus: a fixed tail appended;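 also: lentivirally expressed fusions sorted by FACS into six bins by GFP to DsRed ratio, PSI derived from sequencing read proportions per bin multiplied by bin number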
Output True for protein stability index not less than 3; output False otherwise.

In plain terms: is recorded protein stability index at least 3 for "TDFLRVVRNQQSLAVSNMGARSKG" ?
True

Can "IDFLRVERNQQSLAVSNMGARSKG" be said to have protein stability index at or above 3?
True

Dear colleague, could you confirm whether "IDFLRVVRNQQSLAVSNKGARSKG" has protein stability index at or above 3?
False

Record "IDFLRVVRNQQSLAVSNMGARSLG" ; criterion: protein stability index no lower than 3. Met?
False

Determine whether measured protein stability index meets or exceeds 3 for "IDFLIVVRNQQSLAVSNMGARSKG"
False
